Recorded below: Ki, system Neuronal acetylcholine receptor subunit alpha-7 (Rattus norvegicus, UniProt Q05941).
quantityKind: Ki (nM)

COc1ccc(/C=C2\CCCN=C2c2cccnc2)cc1; 570
FC(F)Oc1ccc(/C=C2\CCCN=C2c2cccnc2)cc1; 1010
COc1cccc(/C=C2\CCCN=C2c2cccnc2)c1; 460
COc1ccc(/C=C2\CCCN=C2c2cccnc2)c(O)c1; 320
CC(C)(C)Oc1ccc(/C=C2\CCCN=C2c2cccnc2)cc1; 2230
COc1cc(OC)c(/C=C2\CCCN=C2c2cccnc2)c(OC)c1; 180
Oc1ccc(/C=C2\CCCN=C2c2cccnc2)c(O)c1; 200
Nc1ccc(/C=C2\CCCN=C2c2cccnc2)cc1; 50
CC(=O)Oc1ccccc1/C=C1\CCCN=C1c1cccnc1; 570
C(=C1/CCCN=C1c1cccnc1)/c1ccc(N2CCOCC2)cc1; 300
Cc1cc(C)c(/C=C2\CCCN=C2c2cccnc2)c(C)c1; 1510
N#Cc1ccc(/C=C2\CCCN=C2c2cccnc2)cc1; 2300
CNc1ccc(/C=C2\CCCN=C2c2cccnc2)cc1; 50
CC(C)(C)C(=O)Oc1ccccc1/C=C1\CCCN=C1c1cccnc1; 650
CCN(CC)c1ccc(/C=C2\CCCN=C2c2cccnc2)c(O)c1; 50
Cc1cc(O)cc(C)c1/C=C1\CCCN=C1c1cccnc1; 5490
COc1ccc(/C=C2\CCCN=C2c2cccnc2)c(OC)c1 [GTS-21]; 130
Cc1cc(/C=C2\CCCN=C2c2cccnc2)cc(C)c1O; 530
CC(C)(C)C(=O)Oc1ccc(/C=C2\CCCN=C2c2cccnc2)cc1; 690
Clc1ccc(/C=C2\CCCN=C2c2cccnc2)cc1; 1120
C(=C1/CCCN=C1c1cccnc1)/c1ccccc1 [3-BENZYLIDENEANABASEINE]; 600
CSc1ccc(/C=C2\CCCN=C2c2cccnc2)cc1; 250
Oc1ccc(/C=C2\CCCN=C2c2cccnc2)cc1; 360
Cc1ccc(/C=C2\CCCN=C2c2cccnc2)cc1; 436
